test system: Escherichia coli TOP10; assay: shrunken log2 fold change of peptide-encoding DNA abundance (4.5 h post-induction vs induction); higher = less antimicrobial activity (less host growth inhibition); conditions: time post-induction: 4.5 h; library: site-saturation at positions 5, 18, 19, 20
Answer No if shrunken log2 fold change is under -0.07, and Yes if it is -0.07 or more.

INSERT INTO assay_data (macromoleculesequence, categorylabel) VALUES
  ('RRIRSRPPRLPRPRPRPWLDPRP', 'No'),
  ('RRIRMRPPRLPRPRPRPMHAPRP', 'Yes'),
  ('RRIRPRPPRLPRPRPRPFEGPRP', 'Yes'),
  ('RRIRIRPPRLPRPRPRPNMLPRP', 'No'),
  ('RRIRTRPPRLPRPRPRPKNMPRP', 'No'),
  ('RRIRKRPPRLPRPRPRPEQRPRP', 'Yes'),
  ('RRIRPRPPRLPRPRPRPAELPRP', 'Yes'),
  ('RRIRGRPPRLPRPRPRPATTPRP', 'Yes'),
  ('RRIRHRPPRLPRPRPRPGHGPRP', 'Yes'),
  ('RRIRSRPPRLPRPRPRPGGIPRP', 'Yes'),
  ('RRIRMRPPRLPRPRPRPSQDPRP', 'Yes'),
  ('RRIRTRPPRLPRPRPRPRHRPRP', 'Yes'),
  ('RRIRIRPPRLPRPRPRPITKPRP', 'No'),
  ('RRIRKRPPRLPRPRPRPPAHPRP', 'Yes');

###

system: Escherichia coli TOP10; test: shrunken log2 fold change of peptide-encoding DNA abundance (4.5 h post-induction vs induction); higher = less antimicrobial activity (less host growth inhibition); conditions: time post-induction: 4.5 h; library: site-saturation at positions 5, 18, 19, 20
measuredProperty: shrunken log2 fold change

INSERT INTO assay_data (macromoleculesequence, readoutvalue) VALUES
  ('RRIRSRPPRLPRPRPRPYLSPRP', -0.062),
  ('RRIRKRPPRLPRPRPRPCKHPRP', -0.11),
  ('RRIRWRPPRLPRPRPRPWCRPRP', -0.000362),
  ('RRIRMRPPRLPRPRPRPTMWPRP', 0.274),
  ('RRIRARPPRLPRPRPRPQRVPRP', -0.188),
  ('RRIRYRPPRLPRPRPRPIFNPRP', -0.89),
  ('RRIRERPPRLPRPRPRPQQKPRP', -0.157),
  ('RRIRARPPRLPRPRPRPLCPPRP', 0.0472),
  ('RRIRCRPPRLPRPRPRPRKEPRP', 0.239),
  ('RRIRPRPPRLPRPRPRPCNMPRP', 0.0288),
  ('RRIRMRPPRLPRPRPRPNQIPRP', 0.283),
  ('RRIRSRPPRLPRPRPRPSRPPRP', 1.28),
  ('RRIRIRPPRLPRPRPRPHSRPRP', -0.197),
  ('RRIRCRPPRLPRPRPRPKRAPRP', 0.778),
  ('RRIRWRPPRLPRPRPRPLMRPRP', 0.858),
  ('RRIRGRPPRLPRPRPRPMCEPRP', 2.46),
  ('RRIRKRPPRLPRPRPRPPCVPRP', 0.443),
  ('RRIRKRPPRLPRPRPRPDPMPRP', 0.86),
  ('RRIRCRPPRLPRPRPRPLYHPRP', -0.695),
  ('RRIRYRPPRLPRPRPRPLGSPRP', -0.651),
  ('RRIRARPPRLPRPRPRPWCLPRP', -0.214),
  ('RRIRYRPPRLPRPRPRPFLAPRP', -0.649),
  ('RRIRLRPPRLPRPRPRPDGFPRP', 0.052),
  ('RRIRERPPRLPRPRPRPCGSPRP', 0.0206),
  ('RRIRIRPPRLPRPRPRPWHNPRP', -0.169),
  ('RRIRPRPPRLPRPRPRPGIPPRP', -0.157),
  ('RRIRVRPPRLPRPRPRPNKCPRP', -0.616),
  ('RRIRGRPPRLPRPRPRPPKAPRP', 0.63),
  ('RRIRDRPPRLPRPRPRPNADPRP', 0.018),
  ('RRIRIRPPRLPRPRPRPTLTPRP', -0.13),
  ('RRIRPRPPRLPRPRPRPILLPRP', -0.526),
  ('RRIRWRPPRLPRPRPRPTCKPRP', -0.0078);

###

system: Escherichia coli TOP10; assay: shrunken log2 fold change of peptide-encoding DNA abundance (4.5 h post-induction vs induction); higher = less antimicrobial activity (less host growth inhibition); conditions: time post-induction: 4.5 h; library: site-saturation at positions 5, 18, 19, 20;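 also: peptides expressed intracellularly from a pBAD plasmid library in pooled LB shake-flask culture, induced with 0.3% L-arabinose, DNA abundance read by NGS, three biological replicates, DESeq2 with apeglm shrinkage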
Decide using shrunken log2 fold change: a value greater than or equal to -0.06 is rule met, a smaller one is rule not met.

INSERT INTO measurements (macromoleculesequence, measuredon, categorylabel) VALUES
  ('RRIRIRPPRLPRPRPRPVFDPRP', 'Escherichia coli TOP10', 'rule not met'),
  ('RRIRCRPPRLPRPRPRPRDDPRP', 'Escherichia coli TOP10', 'rule met'),
  ('RRIRMRPPRLPRPRPRPIDQPRP', 'Escherichia coli TOP10', 'rule met'),
  ('RRIRKRPPRLPRPRPRPHWSPRP', 'Escherichia coli TOP10', 'rule met'),
  ('RRIRIRPPRLPRPRPRPGVIPRP', 'Escherichia coli TOP10', 'rule met'),
  ('RRIRKRPPRLPRPRPRPLHSPRP', 'Escherichia coli TOP10', 'rule met'),
  ('RRIRQRPPRLPRPRPRPMCTPRP', 'Escherichia coli TOP10', 'rule not met'),
  ('RRIRRRPPRLPRPRPRPVFEPRP', 'Escherichia coli TOP10', 'rule met'),
  ('RRIRLRPPRLPRPRPRPKAYPRP', 'Escherichia coli TOP10', 'rule not met'),
  ('RRIRFRPPRLPRPRPRPHMFPRP', 'Escherichia coli TOP10', 'rule not met'),
  ('RRIRTRPPRLPRPRPRPFYLPRP', 'Escherichia coli TOP10', 'rule not met'),
  ('RRIRFRPPRLPRPRPRPWGDPRP', 'Escherichia coli TOP10', 'rule met'),
  ('RRIRTRPPRLPRPRPRPHNGPRP', 'Escherichia coli TOP10', 'rule not met'),
  ('RRIRNRPPRLPRPRPRPCFQPRP', 'Escherichia coli TOP10', 'rule met'),
  ('RRIRPRPPRLPRPRPRPYWDPRP', 'Escherichia coli TOP10', 'rule not met'),
  ('RRIRVRPPRLPRPRPRPWPRPRP', 'Escherichia coli TOP10', 'rule met'),
  ('RRIRYRPPRLPRPRPRPPTEPRP', 'Escherichia coli TOP10', 'rule met'),
  ('RRIRFRPPRLPRPRPRPCGMPRP', 'Escherichia coli TOP10', 'rule not met'),
  ('RRIRGRPPRLPRPRPRPYDGPRP', 'Escherichia coli TOP10', 'rule not met'),
  ('RRIRQRPPRLPRPRPRPVCLPRP', 'Escherichia coli TOP10', 'rule not met'),
  ('RRIRDRPPRLPRPRPRPKHKPRP', 'Escherichia coli TOP10', 'rule not met'),
  ('RRIRHRPPRLPRPRPRPIFYPRP', 'Escherichia coli TOP10', 'rule not met'),
  ('RRIRYRPPRLPRPRPRPCRQPRP', 'Escherichia coli TOP10', 'rule not met'),
  ('RRIRPRPPRLPRPRPRPEMYPRP', 'Escherichia coli TOP10', 'rule not met'),
  ('RRIRGRPPRLPRPRPRPGVHPRP', 'Escherichia coli TOP10', 'rule met'),
  ('RRIRVRPPRLPRPRPRPWGLPRP', 'Escherichia coli TOP10', 'rule not met'),
  ('RRIRPRPPRLPRPRPRPLPEPRP', 'Escherichia coli TOP10', 'rule met'),
  ('RRIRSRPPRLPRPRPRPRIEPRP', 'Escherichia coli TOP10', 'rule met'),
  ('RRIRSRPPRLPRPRPRPRAYPRP', 'Escherichia coli TOP10', 'rule met'),
  ('RRIRWRPPRLPRPRPRPRQEPRP', 'Escherichia coli TOP10', 'rule met'),
  ('RRIRIRPPRLPRPRPRPPCIPRP', 'Escherichia coli TOP10', 'rule met'),
  ('RRIRIRPPRLPRPRPRPWMPPRP', 'Escherichia coli TOP10', 'rule not met'),
  ('RRIRNRPPRLPRPRPRPFDLPRP', 'Escherichia coli TOP10', 'rule not met'),
  ('RRIRARPPRLPRPRPRPHYMPRP', 'Escherichia coli TOP10', 'rule not met'),
  ('RRIRDRPPRLPRPRPRPVMGPRP', 'Escherichia coli TOP10', 'rule met'),
  ('RRIRARPPRLPRPRPRPVYGPRP', 'Escherichia coli TOP10', 'rule not met'),
  ('RRIRYRPPRLPRPRPRPWQLPRP', 'Escherichia coli TOP10', 'rule not met'),
  ('RRIRVRPPRLPRPRPRPNWDPRP', 'Escherichia coli TOP10', 'rule not met'),
  ('RRIRDRPPRLPRPRPRPFIMPRP', 'Escherichia coli TOP10', 'rule not met'),
  ('RRIRGRPPRLPRPRPRPEEKPRP', 'Escherichia coli TOP10', 'rule met'),
  ('RRIRWRPPRLPRPRPRPHQNPRP', 'Escherichia coli TOP10', 'rule met'),
  ('RRIRERPPRLPRPRPRPGHIPRP', 'Escherichia coli TOP10', 'rule met'),
  ('RRIRVRPPRLPRPRPRPVWQPRP', 'Escherichia coli TOP10', 'rule met'),
  ('RRIRSRPPRLPRPRPRPTRGPRP', 'Escherichia coli TOP10', 'rule met'),
  ('RRIRVRPPRLPRPRPRPLENPRP', 'Escherichia coli TOP10', 'rule met'),
  ('RRIRPRPPRLPRPRPRPDPIPRP', 'Escherichia coli TOP10', 'rule met'),
  ('RRIRPRPPRLPRPRPRPTSFPRP', 'Escherichia coli TOP10', 'rule met'),
  ('RRIRNRPPRLPRPRPRPCYNPRP', 'Escherichia coli TOP10', 'rule not met'),
  ('RRIRERPPRLPRPRPRPIGPPRP', 'Escherichia coli TOP10', 'rule not met'),
  ('RRIRCRPPRLPRPRPRPIPAPRP', 'Escherichia coli TOP10', 'rule met'),
  ('RRIRARPPRLPRPRPRPGTEPRP', 'Escherichia coli TOP10', 'rule met'),
  ('RRIRFRPPRLPRPRPRPWAFPRP', 'Escherichia coli TOP10', 'rule not met'),
  ('RRIRPRPPRLPRPRPRPGVDPRP', 'Escherichia coli TOP10', 'rule met'),
  ('RRIRWRPPRLPRPRPRPLNNPRP', 'Escherichia coli TOP10', 'rule not met'),
  ('RRIRSRPPRLPRPRPRPCCQPRP', 'Escherichia coli TOP10', 'rule met'),
  ('RRIRCRPPRLPRPRPRPMTVPRP', 'Escherichia coli TOP10', 'rule met'),
  ('RRIRPRPPRLPRPRPRPDCRPRP', 'Escherichia coli TOP10', 'rule met'),
  ('RRIRTRPPRLPRPRPRPMPHPRP', 'Escherichia coli TOP10', 'rule met'),
  ('RRIRGRPPRLPRPRPRPVSKPRP', 'Escherichia coli TOP10', 'rule met'),
  ('RRIRKRPPRLPRPRPRPFCVPRP', 'Escherichia coli TOP10', 'rule met');
